Target: T1, BsoBI D246Y (UniProt P70985 P70985:1-323, D246Y)
T1 sequence: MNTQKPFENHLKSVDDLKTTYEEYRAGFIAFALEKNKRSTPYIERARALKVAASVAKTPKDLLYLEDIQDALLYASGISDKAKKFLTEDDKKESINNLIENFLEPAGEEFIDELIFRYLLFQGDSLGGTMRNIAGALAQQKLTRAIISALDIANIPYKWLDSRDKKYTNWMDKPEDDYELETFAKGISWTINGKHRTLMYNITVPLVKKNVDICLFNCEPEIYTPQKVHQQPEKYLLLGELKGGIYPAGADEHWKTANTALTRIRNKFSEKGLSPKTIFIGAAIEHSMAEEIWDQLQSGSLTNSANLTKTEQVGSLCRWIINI
Assay: filter; 4 mM CaCl2; ±2
Conditions: chain copies: 2 inferred; label: 33P 5' end
Experimental: The binding condition was in 10 mM Tris-HCl, pH 7.5, 100 mM NaCl, 50 mg/ml BSA, 4 mM CaCl₂ in […] volume. The labeled DNA substrates were diluted to a final scintillation count of 1000-5000 cpm and varying amount of BsoBI or each variant was added. […] The radioactivity count from the sample without BsoBI is F₀, and the radioactivity count from sample with BsoBI or each variant is F. The apparent Kd value is calculated from F/F₀ and the BsoBI concentration [E] according to equation [1]. […]
REPORTED PROPERTY: Kd (nM)
Express it in nM; write the number only.

Reported Kd ( S2 (CCCGGG) (dsDNA) DNA 1: GAGTGTTATGGGTAGCCCGGGTGAAGTGGGAATATC DNA 2: GATATTCCCACTTCACCCGGGCTACCCATAACACTC ) = 0.041
